Reference source for all entries: patent US20260184708A1

Molecular target: TRPC5 (Homo sapiens, UniProt Q9UL62)
Construct: expressed in transfected cells; host or cells: HEK 293
Sequence (Q9UL62 whole entry): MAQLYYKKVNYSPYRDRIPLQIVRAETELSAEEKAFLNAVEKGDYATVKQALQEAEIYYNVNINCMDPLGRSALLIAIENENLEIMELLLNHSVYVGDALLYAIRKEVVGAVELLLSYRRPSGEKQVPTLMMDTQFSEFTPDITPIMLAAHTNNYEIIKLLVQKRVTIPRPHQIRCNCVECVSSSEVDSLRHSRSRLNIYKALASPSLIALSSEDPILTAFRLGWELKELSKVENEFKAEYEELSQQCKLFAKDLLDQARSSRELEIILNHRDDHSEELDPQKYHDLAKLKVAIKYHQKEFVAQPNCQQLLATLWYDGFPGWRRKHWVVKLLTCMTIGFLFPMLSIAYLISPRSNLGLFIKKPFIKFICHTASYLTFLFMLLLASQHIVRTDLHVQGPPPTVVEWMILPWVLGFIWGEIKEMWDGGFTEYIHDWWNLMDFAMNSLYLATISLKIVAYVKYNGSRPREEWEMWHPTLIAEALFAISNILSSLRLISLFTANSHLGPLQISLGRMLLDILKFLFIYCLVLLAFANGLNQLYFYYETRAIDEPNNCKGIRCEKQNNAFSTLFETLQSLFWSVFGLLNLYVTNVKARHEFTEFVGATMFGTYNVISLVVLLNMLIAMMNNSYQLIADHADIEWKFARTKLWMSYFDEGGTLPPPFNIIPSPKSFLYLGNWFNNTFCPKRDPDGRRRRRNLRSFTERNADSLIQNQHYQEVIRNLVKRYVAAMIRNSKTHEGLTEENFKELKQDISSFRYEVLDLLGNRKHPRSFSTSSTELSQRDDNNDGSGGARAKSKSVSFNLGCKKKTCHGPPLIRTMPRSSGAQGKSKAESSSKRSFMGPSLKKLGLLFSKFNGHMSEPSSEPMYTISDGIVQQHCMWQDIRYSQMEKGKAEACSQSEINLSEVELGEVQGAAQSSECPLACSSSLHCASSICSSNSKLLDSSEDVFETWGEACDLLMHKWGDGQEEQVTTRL
Experiment: TRPC5 automated patch clamp assay (Qpatch), current block after rosiglitazone stimulation
Format: cell-based
Conditions: HEK293 cells overexpressing TRPC5; rosiglitazone stimulation; 100 mV; read-out: TRPC5_QP XC50_100
pIC50: −log10 of the molar value.
Collected pIC50 values appear next to each entry.
measure: pIC50

>>> value("Cc1ccccc1CN1CCN(c2cn[nH]c(=O)c2)CC1")
"3.30 to 5.00"
>>> value("O=c1[nH]ncc(N2CCN(Cc3ccccc3)C3(CC3)C2)c1Br")
"3.30 to 5.00"
>>> value("Cc1ccccc1C(=O)N1CCN(c2cn[nH]c(=O)c2Br)CC1")
"5.00 to 5.30"
>>> value("O=c1[nH]ncc(N2CCN(CC3CCCCC3)CC2)c1Br")
"5.30 to 6.00"
>>> value("Cc1ccccc1CN1CCN(c2c(Br)cn[nH]c2=O)CC1")
"5.30 to 6.00"
>>> value("NC(=O)CN1CCN(c2cn[nH]c(=O)c2Br)CC1")
"3.30 to 5.00"
>>> value("CN(C)C(=O)CN1CCN(c2cn[nH]c(=O)c2Br)CC1")
"3.30 to 5.00"
>>> value("O=c1[nH]ncc(N2C3CCC2CN(Cc2ccccc2)C3)c1Br")
"3.30 to 5.00"
>>> value("Cc1ccccc1CN1CCN(c2cn[nH]c(=O)c2Br)CC12CC2")
"3.30 to 5.00"
>>> value("O=c1[nH]ncc(N2CCN(S(=O)(=O)c3ccccc3)CC2)c1Br")
"3.30 to 5.00"
>>> value("CS(=O)(=O)N1CCN(c2cn[nH]c(=O)c2Br)CC1")
"3.30 to 5.00"

###

Biological target: TRPC5 (Homo sapiens, UniProt Q9UL62)
Construct: expressed in transfected cells; host or cells: HEK 293
Assay: TRPC5 automated patch clamp assay (Qpatch), current block after rosiglitazone stimulation
Assay type: cell-based
Conditions: Table 6; HEK293 cells overexpressing TRPC5; read-out: TRPC5-QPatch IC50
pIC50: −log10 of the molar value.
Examples of molecules with documented pIC50 follow.
measure: pIC50

>>> value("O=c1[nH]ncc(N2CCc3c(ncn3Cc3ccccc3C(F)(F)F)C2)c1C1CC1")
"5.00 to 5.30"
>>> value("O=c1[nH]ncc(N2CCc3c(ncn3Cc3cccnc3C(F)(F)F)C2)c1Cl")
"5.30 to 6.00"
>>> value("O=c1[nH]ncc(N2CCc3ncn(Cc4ccc(C(F)(F)F)cc4)c3C2)c1Cl")
"3.30 to 5.00"
>>> value("O=c1[nH]ncc(N2CCc3c(ncn3Cc3ccc(F)cc3C(F)(F)F)C2)c1Cl [drawing 844]")
"6.00 to 11.00"
>>> value("O=c1[nH]ncc(N2CCc3c(nnn3Cc3ccccc3C(F)(F)F)C2)c1Br")
"5.30 to 6.00"

###

Target: TRPC5 (Homo sapiens, UniProt Q9UL62)
Construct: expressed in transfected cells; host or cells: HEK 293
Experiment: TRPC5 automated patch clamp assay (Qpatch), current block after rosiglitazone stimulation
Type: cell-based
Settings: Table 6; HEK293 cells overexpressing TRPC5; read-out: TRPC5-QPatch IC50
pIC50: −log10 of the molar value.
measure: pIC50

>>> value("N#Cc1c(N2CCc3c(ncn3Cc3ccccc3C(F)F)C2)cn[nH]c1=O")
"5.30 to 6.00"
>>> value("O=c1[nH]ncc(N2CCc3c(ncn3-c3cccc(C(F)(F)F)c3)C2)c1Cl")
"5.30 to 6.00"
>>> value("N#Cc1c(N2CCc3c(nnn3Cc3ccccc3C(F)(F)F)C2)cn[nH]c1=O [drawing 891]")
"5.30 to 6.00"
>>> value("O=c1[nH]ncc(N2CCc3c(cnn3Cc3ccccc3C(F)(F)F)C2)c1Cl")
"6.00 to 11.00"
>>> value("C[C@H](c1ccccc1)n1cnc2c1CCN(c1cn[nH]c(=O)c1Cl)C2 [drawing 842]")
"5.30 to 6.00"
>>> value("N#Cc1c(N2CCc3c(nnn3Cc3ccccc3C(F)F)C2)cn[nH]c1=O")
"5.30 to 6.00"
>>> value("O=c1[nH]ncc(N2CCc3c(ncn3Cc3ncccc3C(F)(F)F)C2)c1Cl")
"5.30 to 6.00"
>>> value("O=c1[nH]ncc(N2CCc3c(ncn3Cc3cccnc3OC(F)(F)F)C2)c1Cl")
"6.00 to 11.00"
>>> value("Cc1ncccc1Cn1cnc2c1CCN(c1cn[nH]c(=O)c1Cl)C2")
"5.30 to 6.00"
>>> value("CCc1cc(F)ccc1Cn1cnc2c1CCN(c1cn[nH]c(=O)c1Cl)C2 [drawing 889]")
"6.00 to 11.00"

###

Target: TRPC5 (Homo sapiens, UniProt Q9UL62)
Construct: expressed in transfected cells; host or cells: HEK 293
Assay: TRPC5 automated patch clamp assay (Qpatch), current block after rosiglitazone stimulation
Format: cell-based
Conditions: Table 6; HEK293 cells overexpressing TRPC5; read-out: TRPC5-QPatch IC50
pIC50: −log10 of the molar value.
measure: pIC50

>>> value("Cc1ccccc1-n1ncc2c1CCN(c1cn[nH]c(=O)c1Cl)C2")
"6.00 to 11.00"
>>> value("O=c1[nH]ncc(N2CCc3c(ncn3Cc3ccc(F)nc3C(F)(F)F)C2)c1Cl")
"6.00 to 11.00"
>>> value("N#Cc1c(N2CCc3c(ncn3Cc3ccccc3C(F)(F)F)C2)cn[nH]c1=O [drawing 873]")
"6.00 to 11.00"
>>> value("CCc1ncccc1Cn1nnc2c1CCN(c1cn[nH]c(=O)c1Cl)C2")
"5.30 to 6.00"
>>> value("O=c1[nH]ncc(N2CCc3c(ncn3Cc3ccc(F)cc3C(F)F)C2)c1Cl [drawing 892]")
"6.00 to 11.00"
>>> value("O=c1[nH]ncc(N2CCc3nn(-c4ccccc4C(F)(F)F)cc3C2)c1Cl")
"3.30 to 5.00"
>>> value("O=c1[nH]ncc(N2CCc3c(ncn3Cc3ccc(C(F)(F)F)nc3)C2)c1Cl")
"3.30 to 5.00"
>>> value("Cc1ccccc1Cn1cnc2c1CCN(c1cn[nH]c(=O)c1Cl)C2 [drawing 840]")
"6.00 to 11.00"
>>> value("O=c1[nH]ncc(N2CCc3c(nnn3Cc3ccccc3C(F)F)C2)c1Cl")
"6.00 to 11.00"
>>> value("O=c1[nH]ncc(N2CCc3c(ncn3C3CCCCC3)C2)c1Cl")
"5.00 to 5.30"
>>> value("O=c1[nH]ncc(N2CCc3c(ncn3Cc3ccccc3C(F)F)C2)c1Cl [drawing 839]")
"5.00 to 5.30"
>>> value("O=c1[nH]ncc(N2CCc3c(ncn3Cc3ccccc3C(F)(F)F)C2)c1Br [drawing 862]")
"6.00 to 11.00"
>>> value("O=c1[nH]ncc(N2CCc3c(ncn3-c3cccnc3C(F)(F)F)C2)c1Cl")
"5.30 to 6.00"
>>> value("CCc1ncccc1Cn1nnc2c1CCN(c1cn[nH]c(=O)c1C#N)C2 [drawing 895]")
"5.00 to 5.30"
>>> value("O=c1[nH]ncc(N2CCc3c(ncn3Cc3ccccc3)C2)c1Cl [drawing 880]")
"5.30 to 6.00"
>>> value("O=c1[nH]ncc(N2CCc3c(ncn3Cc3ccc(C(F)(F)F)cc3)C2)c1C1CC1")
"3.30 to 5.00"
>>> value("O=c1[nH]ncc(N2CCc3c(ncn3-c3ccccc3C(F)(F)F)C2)c1Cl [drawing 871]")
"6.00 to 11.00"
>>> value("O=c1[nH]ncc(N2CCc3c(nnn3Cc3ccc(F)cc3C(F)(F)F)C2)c1Cl")
"6.00 to 11.00"
>>> value("N#Cc1ccccc1-n1cnc2c1CN(c1cn[nH]c(=O)c1C#N)CC2 [drawing 841]")
"5.30 to 6.00"
>>> value("O=c1[nH]ncc(N2CCc3c(cnn3-c3ccccc3OC(F)(F)F)C2)c1Cl")
"5.30 to 6.00"

###

The entries below are paired with their reported IC50.
Biological target: TRPC5 (Homo sapiens)
Construct: expressed in transfected cells; host or cells: HEK 293
Experiment: TRPC5 automated patch clamp assay (Qpatch), current block after rosiglitazone stimulation
Assay type: cell-based
Settings: Table 5; HEK293 cells overexpressing TRPC5; rosiglitazone stimulation; 100 mV; read-out: TRPC5_QP_ XC50_100
measure: IC50

>>> value("COc1ncccc1CN1CCN(c2cn[nH]c(=O)c2Cl)CC1")
"1 to 5 µM"
>>> value("O=C1CN(c2c(Cl)cn[nH]c2=O)CCN1Cc1cccc(OC(F)(F)F)c1")
"10 to 500 µM"
>>> value("Cc1cc(F)ccc1CN1CCN(c2cc(=O)[nH]nc2-c2ccccc2)CC1")
"1 to 5 µM"
>>> value("Cc1cc(F)ccc1CN1CCN(c2cn[nH]c(=O)c2C(F)(F)F)CC1=O")
"5 to 10 µM"
>>> value("O=C1CN(c2cn[nH]c(=O)c2Cl)CCN1Cc1ccc(F)cc1")
"5 to 10 µM"
>>> value("COc1cc(F)ccc1CN1CCN(c2cn[nH]c(=O)c2Cl)CC1=O [drawing 772]")
"1 to 5 µM"
>>> value("CS(=O)(=O)c1ccccc1CN1CCN(c2cn[nH]c(=O)c2Cl)CC1")
"5 to 10 µM"
>>> value("Cc1cc(F)ccc1CN1CCN(c2c(Cl)c(Br)n[nH]c2=O)CC1")
"10 to 500 µM"
>>> value("CC(C)(C)c1ccc(CN2CCN(c3cn[nH]c(=O)c3Cl)CC2=O)cc1")
"10 to 500 µM"
